test system: anti-CCR5 antibody 2D7; test: Screening of peptide microarrays with anti-CCR5 antibody 2D7; assay type: binding; settings: mAb 2D7 at 0.1 μg/ml on peptide microarray; absorbance at 405 nm measured using a CCD-camera
Quantity: 2D7 (0.1 μg/ml)

Here's what some known entries look like.
Input Sequence	Quantity	Data Value
CQWDFGNTCQKEGLHYTC (SEQ ID NO: 107) (not fully specified; bound to P2 or T3 scaffold) [compound 1159]	2D7 (0.1 μg/ml)	213
CSQKEGLHYTC (SEQ ID NO: 103) (not fully specified; bound to P2 or T3 scaffold) [compound 449]	2D7 (0.1 μg/ml)	99
CFGNTMGGGRSQKEGLHYTC (SEQ ID NO: 108) (not fully specified; bound to P2 or T3 scaffold) [compound 719]	2D7 (0.1 μg/ml)	113

Suppose we examine the sequence CRSQKEGLHYTC (SEQ ID NO: 105) [compound 450] ; what 2D7 (0.1 μg/ml) value has been reported? 107

CQKEGLHYC (SEQ ID NO: 102) (not fully specified; bound to P2 or T3 scaffold) [compound 443] ? 148

And what about the sequence CWDFGNTMCQKEGLHYTC (SEQ ID NO: 104) (not fully specified; bound to P2 or T3 scaffold) [compound 1160] ? 315

Next: CQKEGLHYTC (SEQ ID NO: 101) (not fully specified; bound to P2 or T3 scaffold) [compound 447] 261

And then CAQWDFGNCQKEGLHYTC (SEQ ID NO: 109) (not fully specified; bound to P2 or T3 scaffold) [compound 1158] , what is it? 132

Could you do the same for CNTMGGGRSQKEGLHYTC (SEQ ID NO: 106) (not fully specified; bound to P2 or T3 scaffold) [compound 702] , please? 68
